Target: T1, human IL-36R extracellular domain expressed with a C-terminal myc-myc-hexahistidine tag (hIL-36R-MMH) (human, UniProt Q9HB29 20-337)
T1 construct: also called Human IL-36R-MMH; REGN2105
T1 sequence (Q9HB29 other isoform, or with tags, fused parts or gaps limits assumed): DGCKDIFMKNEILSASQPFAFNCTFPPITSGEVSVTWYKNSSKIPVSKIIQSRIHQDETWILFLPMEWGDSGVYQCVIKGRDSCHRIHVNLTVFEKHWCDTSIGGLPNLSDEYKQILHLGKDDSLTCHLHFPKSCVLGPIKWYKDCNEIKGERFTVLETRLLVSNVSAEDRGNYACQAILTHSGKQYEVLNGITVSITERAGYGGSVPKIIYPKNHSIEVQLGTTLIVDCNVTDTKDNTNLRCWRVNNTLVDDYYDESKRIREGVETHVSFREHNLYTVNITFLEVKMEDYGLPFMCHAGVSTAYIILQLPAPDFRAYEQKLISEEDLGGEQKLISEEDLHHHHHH
Experiment: SPR Biacore T200, mAb captured on anti-hFc, 37C, PBS-T pH 7.4 running buffer
t1/2 listing for selected binders.
Answer by giving the amount and then stating its unit.

Can you share its t1/2? I mean this binder: H4H14758P (antibody, human IgG4 S228P, kappa, V domains shown, Fully human anti-IL-36R antibody) VH: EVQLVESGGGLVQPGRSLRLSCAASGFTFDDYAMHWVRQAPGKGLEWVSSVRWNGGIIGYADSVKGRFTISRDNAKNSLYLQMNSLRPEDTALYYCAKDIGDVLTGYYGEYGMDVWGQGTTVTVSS VL: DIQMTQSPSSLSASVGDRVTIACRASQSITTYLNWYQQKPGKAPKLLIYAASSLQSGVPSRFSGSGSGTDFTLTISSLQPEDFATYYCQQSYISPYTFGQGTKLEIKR
5 min

Value lookup for t1/2; key = H4H14708P2 (antibody, human IgG4 S228P, kappa, V domains shown, Fully human anti-IL-36R antibody) VH: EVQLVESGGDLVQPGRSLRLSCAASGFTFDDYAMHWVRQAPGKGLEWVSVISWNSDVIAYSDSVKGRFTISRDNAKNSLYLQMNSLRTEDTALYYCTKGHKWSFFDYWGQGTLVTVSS VL: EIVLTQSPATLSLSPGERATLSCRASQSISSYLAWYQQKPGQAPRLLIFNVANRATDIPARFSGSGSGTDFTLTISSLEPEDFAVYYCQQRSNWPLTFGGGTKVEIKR
7 min
